Target: UniProtKB P0DMS8
Sequence (P0DMS8 whole entry): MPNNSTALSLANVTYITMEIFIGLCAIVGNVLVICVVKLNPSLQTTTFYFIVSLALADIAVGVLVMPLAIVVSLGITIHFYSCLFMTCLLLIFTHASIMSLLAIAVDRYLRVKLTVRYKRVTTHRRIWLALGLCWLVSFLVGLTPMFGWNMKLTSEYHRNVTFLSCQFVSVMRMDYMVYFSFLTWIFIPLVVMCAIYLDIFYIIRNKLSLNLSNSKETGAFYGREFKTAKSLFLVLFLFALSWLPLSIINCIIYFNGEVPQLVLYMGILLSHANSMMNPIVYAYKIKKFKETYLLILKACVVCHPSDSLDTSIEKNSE
Test: GPCR panel, cAMP or calcium FLIPR assays
Assay type: cell-based
Details: antagonist
endpoint.name: IC50

Briefly, IC50 measured for CC1CCCN1C(=O)c1nc(C(=O)NCC(C)(C)O)sc1-c1ccc(C(O)(C(F)(F)F)C(F)(F)F)c(Cl)c1Cl (stereo not shown) : > 12.5 µM

====

Test: 1-month GLP toxicity study in rats
Format: in vivo
Details: Sprague-Dawley, in vivo, po; rat, 400 mg/kg/day, male; read-out: Cmax at NOAEL
endpoint.name: Cmax (ng/mL)
Just the number please, in ng/mL, no unit attached.

Input CC1CCCN1C(=O)c1nc(C(=O)NCC(C)(C)O)sc1-c1ccc(C(O)(C(F)(F)F)C(F)(F)F)c(Cl)c1Cl (stereo not shown) . Output Cmax: 29600

====

Target: M1 (Homo sapiens, UniProt P11229)
Assay: GPCR panel, cAMP or calcium FLIPR assays
Type: cell-based
Settings: antagonist
endpoint.name: IC50

Record CC1CCCN1C(=O)c1nc(C(=O)NCC(C)(C)O)sc1-c1ccc(C(O)(C(F)(F)F)C(F)(F)F)c(Cl)c1Cl (stereo not shown) has M1 (Homo sapiens, UniProt P11229) IC50 equal to > 10 µM

====

Biological target: M1 (Homo sapiens, UniProt P11229)
Sequence (P11229 1-460): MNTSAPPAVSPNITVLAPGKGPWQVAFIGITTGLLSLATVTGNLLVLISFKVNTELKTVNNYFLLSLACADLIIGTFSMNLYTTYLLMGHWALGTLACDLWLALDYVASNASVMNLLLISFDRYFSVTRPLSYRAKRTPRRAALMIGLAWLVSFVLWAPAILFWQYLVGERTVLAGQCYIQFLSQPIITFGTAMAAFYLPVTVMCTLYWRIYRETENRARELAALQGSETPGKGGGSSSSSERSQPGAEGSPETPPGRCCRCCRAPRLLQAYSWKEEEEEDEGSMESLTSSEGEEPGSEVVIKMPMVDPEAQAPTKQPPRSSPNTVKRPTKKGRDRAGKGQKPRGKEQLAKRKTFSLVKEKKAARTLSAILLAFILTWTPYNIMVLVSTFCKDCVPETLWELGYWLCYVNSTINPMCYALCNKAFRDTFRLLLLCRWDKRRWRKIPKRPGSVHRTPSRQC
Experiment: GPCR panel, cAMP or calcium FLIPR assays
Assay type: cell-based
Conditions: agonist
endpoint.name: EC50

EC50 for M1 (Homo sapiens, UniProt P11229) with input CC1CCCN1C(=O)c1nc(C(=O)NCC(C)(C)O)sc1-c1ccc(C(O)(C(F)(F)F)C(F)(F)F)c(Cl)c1Cl (stereo not shown) equals > 10 µM

====

Experiment: mouse PK/PD model, plasma exposure
Format: in vivo
Conditions: female, C57B6, mouse, plasma (5-fold diluted, extrapolated); 100 mg/kg oral, 1 h; calculated for 5-fold dilution; read-out: concentration in 5-fold diluted plasma
Excerpt: Compound concentrations are also listed as undiluted (measured) and diluted (extrapolated) in Supplementary Table S2.
endpoint.name: concentration at 1 h (µM)
Return type: number; implicit unit µM.

// sample CC1CCCN1C(=O)c1nc(C(=O)NCC(C)(C)O)sc1-c1ccc(C(O)(C(F)(F)F)C(F)(F)F)c(Cl)c1Cl (stereo not shown) [JNJ-61803534] , its concentration at 1 h was 10

====

Biological target: 5HT1A (Homo sapiens, UniProt P08908)
Sequence (P08908 whole entry, species assumed): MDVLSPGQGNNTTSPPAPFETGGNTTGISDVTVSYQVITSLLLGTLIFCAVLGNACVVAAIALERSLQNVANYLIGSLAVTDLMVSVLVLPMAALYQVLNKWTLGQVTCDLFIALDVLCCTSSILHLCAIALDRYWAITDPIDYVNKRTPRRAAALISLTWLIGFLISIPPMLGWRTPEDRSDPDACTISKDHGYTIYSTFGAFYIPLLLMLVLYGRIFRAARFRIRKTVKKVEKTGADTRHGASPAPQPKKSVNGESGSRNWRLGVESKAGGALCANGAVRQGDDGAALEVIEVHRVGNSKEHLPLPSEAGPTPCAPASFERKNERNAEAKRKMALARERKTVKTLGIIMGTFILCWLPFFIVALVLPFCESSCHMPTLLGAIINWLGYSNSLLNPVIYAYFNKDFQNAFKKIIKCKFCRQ
Test: GPCR panel, cAMP or calcium FLIPR assays
Format: cell-based
Conditions: antagonist
endpoint.name: IC50

Entry CC1CCCN1C(=O)c1nc(C(=O)NCC(C)(C)O)sc1-c1ccc(C(O)(C(F)(F)F)C(F)(F)F)c(Cl)c1Cl (stereo not shown) [JNJ-61803534] — recorded IC50 = > 12.5 µM

====

Experiment: phase 1 single ascending dose study, pharmacokinetics
Format: in vivo, human
Settings: both sexes, human, plasma, po, 30 mg, 30 mg single oral dose, fasted, n=6; mean (SD)
endpoint.name: AUC(0-inf)
Could you kindly put the unit after your number?

CC1CCCN1C(=O)c1nc(C(=O)NCC(C)(C)O)sc1-c1ccc(C(O)(C(F)(F)F)C(F)(F)F)c(Cl)c1Cl (stereo not shown) yielded AUC(0-inf) of 28700 ng·h/mL

====

Assay: phase 1 single ascending dose study, pharmacokinetics
Format: in vivo, human
Details: both sexes, human, plasma, po, single oral doses 10 to 200 mg; read-out: plasma half-life, mean T1/2 values across the dose groups
endpoint.name: half-life

Per the record, CC1CCCN1C(=O)c1nc(C(=O)NCC(C)(C)O)sc1-c1ccc(C(O)(C(F)(F)F)C(F)(F)F)c(Cl)c1Cl (stereo not shown) [JNJ-61803534] has half-life of 164 to 170 h

====

Assay: phase 1 single ascending dose study, pharmacokinetics
Assay type: in vivo, human
Conditions: both sexes, human, plasma, po, 10 mg, 10 mg single oral dose, fasted, n=6; mean (SD)
endpoint.name: Cmax

For reference, reported Cmax for CC1CCCN1C(=O)c1nc(C(=O)NCC(C)(C)O)sc1-c1ccc(C(O)(C(F)(F)F)C(F)(F)F)c(Cl)c1Cl (stereo not shown) stands at 35.9 ng/mL

====

Molecular target: ADRA1A (Homo sapiens, UniProt P35348)
Sequence (P35348 1-466): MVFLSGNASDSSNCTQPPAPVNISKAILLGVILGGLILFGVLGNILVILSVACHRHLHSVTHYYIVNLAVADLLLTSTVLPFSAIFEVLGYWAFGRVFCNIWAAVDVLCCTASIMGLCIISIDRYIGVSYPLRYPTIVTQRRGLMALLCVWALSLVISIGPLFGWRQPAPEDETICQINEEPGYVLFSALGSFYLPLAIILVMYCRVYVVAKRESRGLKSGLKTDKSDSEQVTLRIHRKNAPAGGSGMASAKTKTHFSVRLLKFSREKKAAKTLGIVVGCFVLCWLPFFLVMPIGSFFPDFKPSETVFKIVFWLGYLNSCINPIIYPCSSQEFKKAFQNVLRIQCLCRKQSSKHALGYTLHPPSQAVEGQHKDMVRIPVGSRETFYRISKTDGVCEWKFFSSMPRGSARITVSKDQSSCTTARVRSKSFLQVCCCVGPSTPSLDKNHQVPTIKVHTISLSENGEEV
Assay: GPCR panel, cAMP or calcium FLIPR assays
Assay type: cell-based
Details: antagonist
endpoint.name: IC50

// sample CC1CCCN1C(=O)c1nc(C(=O)NCC(C)(C)O)sc1-c1ccc(C(O)(C(F)(F)F)C(F)(F)F)c(Cl)c1Cl (stereo not shown) , its IC50 was > 10 µM

====

Test: phase 1 single ascending dose study, pharmacokinetics
Assay type: in vivo, human
Conditions: both sexes, human, plasma, po, 100 mg, 100 mg single oral dose, fasted, n=9; mean (SD)
endpoint.name: AUC(0-inf) (ng·h/mL)
// note: answer is a bare numeric in ng·h/mL

AUC(0-inf) recorded for this molecule, CC1CCCN1C(=O)c1nc(C(=O)NCC(C)(C)O)sc1-c1ccc(C(O)(C(F)(F)F)C(F)(F)F)c(Cl)c1Cl (stereo not shown) , is 100000

====

Biological target: D2L (Homo sapiens, UniProt P14416)
Sequence (P14416 whole entry): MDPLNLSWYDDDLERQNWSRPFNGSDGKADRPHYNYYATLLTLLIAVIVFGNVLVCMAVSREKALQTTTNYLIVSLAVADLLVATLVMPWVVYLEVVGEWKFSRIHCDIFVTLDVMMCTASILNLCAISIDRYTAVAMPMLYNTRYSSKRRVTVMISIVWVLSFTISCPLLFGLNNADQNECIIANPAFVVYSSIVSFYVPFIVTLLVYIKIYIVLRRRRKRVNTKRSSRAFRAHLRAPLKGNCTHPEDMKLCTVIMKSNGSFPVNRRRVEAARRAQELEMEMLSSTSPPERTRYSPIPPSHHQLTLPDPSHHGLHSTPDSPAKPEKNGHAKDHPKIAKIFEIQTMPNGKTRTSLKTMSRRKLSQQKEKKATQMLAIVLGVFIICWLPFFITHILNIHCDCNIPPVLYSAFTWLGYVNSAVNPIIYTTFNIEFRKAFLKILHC
Experiment: GPCR panel, cAMP or calcium FLIPR assays
Type: cell-based
Conditions: antagonist
endpoint.name: IC50

What the record says about CC1CCCN1C(=O)c1nc(C(=O)NCC(C)(C)O)sc1-c1ccc(C(O)(C(F)(F)F)C(F)(F)F)c(Cl)c1Cl (stereo not shown) [JNJ-61803534] : IC50 is > 12.5 µM

====

Target: AT1 (Homo sapiens, UniProt P30556)
Sequence (P30556 whole entry): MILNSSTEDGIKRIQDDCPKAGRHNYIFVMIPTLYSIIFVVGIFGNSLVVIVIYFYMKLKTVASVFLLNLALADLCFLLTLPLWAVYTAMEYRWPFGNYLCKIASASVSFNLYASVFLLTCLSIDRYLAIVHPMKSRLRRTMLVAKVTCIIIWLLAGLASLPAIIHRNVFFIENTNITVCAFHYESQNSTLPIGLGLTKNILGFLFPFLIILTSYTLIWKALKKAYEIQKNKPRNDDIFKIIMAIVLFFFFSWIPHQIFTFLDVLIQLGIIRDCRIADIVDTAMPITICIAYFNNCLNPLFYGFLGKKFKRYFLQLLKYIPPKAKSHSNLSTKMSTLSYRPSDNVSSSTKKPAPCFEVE
Assay: GPCR panel, cAMP or calcium FLIPR assays
Assay type: cell-based
Conditions: agonist
endpoint.name: EC50

Reported EC50 for CC1CCCN1C(=O)c1nc(C(=O)NCC(C)(C)O)sc1-c1ccc(C(O)(C(F)(F)F)C(F)(F)F)c(Cl)c1Cl (stereo not shown) was > 5 µM

====

Molecular target: UniProt P30556
Assay: GPCR panel, cAMP or calcium FLIPR assays
Type: cell-based
Details: antagonist
endpoint.name: IC50

Query CC1CCCN1C(=O)c1nc(C(=O)NCC(C)(C)O)sc1-c1ccc(C(O)(C(F)(F)F)C(F)(F)F)c(Cl)c1Cl (stereo not shown) [JNJ-61803534] yields IC50 of > 5 µM

====

Biological target: 5HT2C (Homo sapiens, UniProt P28335)
Sequence (P28335 33-458, species assumed): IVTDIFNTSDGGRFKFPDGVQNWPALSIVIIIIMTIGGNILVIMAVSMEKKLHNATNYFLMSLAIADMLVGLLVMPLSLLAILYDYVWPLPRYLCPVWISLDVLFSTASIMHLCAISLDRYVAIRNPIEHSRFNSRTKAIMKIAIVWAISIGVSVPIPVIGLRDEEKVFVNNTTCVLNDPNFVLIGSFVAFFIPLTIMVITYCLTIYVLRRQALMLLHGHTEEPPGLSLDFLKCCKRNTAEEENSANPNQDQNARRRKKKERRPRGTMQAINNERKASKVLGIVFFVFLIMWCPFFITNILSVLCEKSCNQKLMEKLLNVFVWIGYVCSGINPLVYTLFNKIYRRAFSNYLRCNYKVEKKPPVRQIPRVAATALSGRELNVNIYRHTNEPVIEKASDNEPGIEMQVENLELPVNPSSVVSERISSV
Experiment: GPCR panel, cAMP or calcium FLIPR assays
Format: cell-based
Conditions: antagonist
endpoint.name: IC50

The measured IC50 associated with CC1CCCN1C(=O)c1nc(C(=O)NCC(C)(C)O)sc1-c1ccc(C(O)(C(F)(F)F)C(F)(F)F)c(Cl)c1Cl (stereo not shown) [JNJ-61803534] reads > 10 µM

====

Test system: human CD4+ T cells under Th17 differentiation
Assay: in vitro human Th17 differentiation, cytokine production
Conditions: read-out: IC50 (95% confidence intervals), IL-17F production
endpoint.name: IC50 (nM)
Provide the reading as a plain figure in nM.

IC50 recorded for this compound, CC1CCCN1C(=O)c1nc(C(=O)NCC(C)(C)O)sc1-c1ccc(C(O)(C(F)(F)F)C(F)(F)F)c(Cl)c1Cl (stereo not shown) , is 22
